Experiment: Cytotoxicity against mouse RAW264.7 cells assessed as reduction in number of cells by DAPI staining based high-content image analysis
Assay type: toxicity, cell-based
quantityMeasured: log10 CC50 (log10 of the value in µM)
In plain terms, each number is the log10 of measured CC50 in µM.

                                   molecule  measured
0  Clc1ccc2c(c1)C(NCCc1ccc(Cl)c(Cl)c1)=Nc1ccccc1O2      1.92
1        CC(C)CCNC1=Nc2ccccc2Oc2ccc(Cl)cc21      1.85

Please state, for each entry, its recorded log10 CC50.
1. CN(C)CCNC1=Nc2ccccc2Oc2ccc(Cl)cc21
2. CCCNC1=Nc2ccccc2Oc2ccc(Cl)cc21
3. Clc1ccc2c(c1)C(NCCc1cccnc1)=Nc1ccccc1O2
4. NCC(=O)Nc1ccc(-n2nc(C(F)(F)F)cc2-c2ccc3c(ccc4ccccc43)c2)cc1 [AR-12]
5. CCC(CC)NC1=Nc2ccccc2Oc2ccc(Cl)cc21
6. Clc1ccc2c(c1)C(NCCCN1CCCC1)=Nc1ccccc1O2
7. Clc1ccc2c(c1)C(NCc1ccccc1)=Nc1ccccc1O2
8. Clc1ccc2c(c1)C(NCCN1CCCC1)=Nc1ccccc1O2

1.54
2.05
1.87
0.89
1.86
1.21
1.78
1.42

* * *

Assignment: determine reported log10(EC50) for the given molecules.
Test system: Salmonella typhimurium
Test: Antibacterial activity against intracellular multidrug-resistant Salmonella typhimurium ATCC14028 infected in mouse RAW264.7 cells assessed as reduction in intracellular bacterial survival level by RFP staining based high-content image analysis
Assay type: functional, organism-based, Salmonella enterica subsp. enterica serovar Typhimurium
Settings: Salmonella enterica, ATCC14028, RAW264.7
In plain terms, each number is the log10 of measured EC50 in µM.

Worked set:
                             chemicalsmiles         targetundertest  measured
0    Clc1ccc2c(c1)C(NCCN1CCCC1)=Nc1ccccc1O2  Salmonella typhimurium      0.69
1      Clc1ccc2c(c1)C(N1CCNCC1)=Nc1ccccc1O2  Salmonella typhimurium      0.86
2  Clc1ccc2c(c1)C(NCCc1ccc(Cl)c(Cl)c1)=Nc1ccccc1O2  Salmonella typhimurium      1.49

Please state, for each entry, its recorded log10(EC50).
1. O=C(O)c1cn(C2CC2)c2cc(N3CCNCC3)c(F)cc2c1=O
2. Clc1ccc2c(c1)C(NCCN1CCNCC1)=Nc1ccccc1O2

1: -0.82; 2: -0.41
